Hello, the source for this data is paper PMC9881875, in case you need it.

# TGT: DLG1 PDZ1 (DLG1–1) (Homo sapiens)
Residues, ends and D or L forms follow the SMILES beside them.
Classify: y when Ki is strictly less than 40 µM; n when Ki is not.

Previously resolved entries follow.
COMPOUND	TGT	LABEL CLASS
CC(C)C[C@H](NC(=O)[C@H](CCC(N)=O)NC(=O)[C@@H](NC(=O)[C@H](CCC(=O)O)NC(=O)[C@H](CCCNC(=N)N)NC(=O)[C@H](CCCNC(=N)N)NC(=O)[C@@H](NC(=O)[C@H](CCCNC(=N)N)NC(=O)[C@H](CO)NC(=O)[C@@H](N)CO)[C@@H](C)O)[C@@H](C)O)C(=O)O [HPV16 E6]	DLG1 PDZ1 (DLG1–1) (Homo sapiens)	y
CC(C)C[C@H](NC(=O)[C@H](CCCNC(=N)N)NC(=O)[C@@H](NC(=O)[C@H](CC(=O)O)NC(=O)[C@H](CCCNC(=N)N)NC(=O)[C@@H](NC(=O)[C@@H](NC(=O)[C@H](CCCNC(=N)N)NC(=O)[C@H](CO)NC(=O)[C@@H](N)CO)[C@@H](C)O)C(C)C)[C@@H](C)O)C(=O)O [CFTRP4R] (H-SSRTVRDTRL-OH)	DLG1 PDZ1 (DLG1–1) (Homo sapiens)	n

Below 40 µM on Ki? Entry CC(C)C[C@H](NC(=O)[C@H](CCC(N)=O)NC(=O)[C@@H](NC(=O)[C@H](CC(=O)O)NC(=O)[C@H](CCC(N)=O)NC(=O)[C@@H](NC(=O)[C@@H](NC(=O)[C@H](CCCNC(=N)N)NC(=O)[C@H](CO)NC(=O)[C@@H](N)CO)[C@@H](C)O)C(C)C)[C@@H](C)O)C(=O)O [CFTRP1Q] (H-SSRTVQDTQL-OH)
n

Same thing, different compound: CC(C)C[C@H](NC(=O)[C@H](CCC(N)=O)NC(=O)[C@@H](NC(=O)[C@H](CCC(=O)O)NC(=O)[C@H](CCC(N)=O)NC(=O)[C@H](CCCNC(=N)N)NC(=O)[C@@H](NC(=O)[C@H](CCCNC(=N)N)NC(=O)[C@H](CO)NC(=O)[C@@H](N)CO)[C@@H](C)O)[C@@H](C)O)C(=O)O [HPVP4Q] (H-SSRTRQETQL-OH)
y

Same thing, different compound: CC(C)C[C@H](NC(=O)[C@H](CCCNC(=N)N)NC(=O)[C@@H](NC(=O)[C@H](CC(=O)O)NC(=O)[C@H](CCC(N)=O)NC(=O)[C@H](CCCNC(=N)N)NC(=O)[C@@H](NC(=O)[C@H](CCCNC(=N)N)NC(=O)[C@H](CO)NC(=O)[C@@H](N)CO)[C@@H](C)O)[C@@H](C)O)C(=O)O [CFTRP5R] (H-SSRTRQDTRL-OH)
n

Same thing, different compound: CC(C)C[C@H](NC(=O)[C@H](CCC(N)=O)NC(=O)[C@@H](NC(=O)[C@H](CCC(=O)O)NC(=O)[C@H](CCCNC(=N)N)NC(=O)[C@@H](NC(=O)[C@@H](NC(=O)[C@H](CCCNC(=N)N)NC(=O)[C@H](CO)NC(=O)[C@@H](N)CO)[C@@H](C)O)C(C)C)[C@@H](C)O)C(=O)O [HPVP5V] (H-SSRTVRETQL-OH)
y

====

Residues, ends and D or L forms follow the SMILES beside them.
Assay read-out log10 of Ki; system under study: NHERF2 PDZ2 (N2P2) (Homo sapiens, UniProt Q15599).
Remember, log10 of Ki, in µM.

Which log10 of Ki value belongs to CC(C)C[C@H](NC(=O)[C@H](CCCNC(=N)N)NC(=O)[C@@H](NC(=O)[C@H](CCC(=O)O)NC(=O)[C@H](CCCNC(=N)N)NC(=O)[C@H](CCCNC(=N)N)NC(=O)[C@@H](NC(=O)[C@H](CCCNC(=N)N)NC(=O)[C@H](CO)NC(=O)[C@@H](N)CO)[C@@H](C)O)[C@@H](C)O)C(=O)O [HPVP1R] (H-SSRTRRETRL-OH) ?
0.84

Same thing, different compound: CC(C)C[C@H](NC(=O)[C@H](CCCNC(=N)N)NC(=O)[C@@H](NC(=O)[C@H](CC(=O)O)NC(=O)[C@H](CCC(N)=O)NC(=O)[C@H](CCCNC(=N)N)NC(=O)[C@@H](NC(=O)[C@H](CCCNC(=N)N)NC(=O)[C@H](CO)NC(=O)[C@@H](N)CO)[C@@H](C)O)[C@@H](C)O)C(=O)O [CFTRP5R] (H-SSRTRQDTRL-OH)
-0.31

Same thing, different compound: CC(C)C[C@H](NC(=O)[C@H](CCC(N)=O)NC(=O)[C@@H](NC(=O)[C@H](CC(=O)O)NC(=O)[C@H](CCC(N)=O)NC(=O)[C@@H](NC(=O)[C@@H](NC(=O)[C@H](CCCNC(=N)N)NC(=O)[C@H](CO)NC(=O)[C@@H](N)CO)[C@@H](C)O)C(C)C)[C@@H](C)O)C(=O)O [CFTRP1Q] (H-SSRTVQDTQL-OH)
0.49

Same thing, different compound: CC(C)C[C@H](NC(=O)[C@H](CCCNC(=N)N)NC(=O)[C@@H](NC(=O)[C@H](CC(=O)O)NC(=O)[C@H](CCCNC(=N)N)NC(=O)[C@@H](NC(=O)[C@@H](NC(=O)[C@H](CCCNC(=N)N)NC(=O)[C@H](CO)NC(=O)[C@@H](N)CO)[C@@H](C)O)C(C)C)[C@@H](C)O)C(=O)O [CFTRP4R] (H-SSRTVRDTRL-OH)
0.23

Same thing, different compound: CC(C)C[C@H](NC(=O)[C@H](CCC(N)=O)NC(=O)[C@@H](NC(=O)[C@H](CCC(=O)O)NC(=O)[C@H](CCCNC(=N)N)NC(=O)[C@@H](NC(=O)[C@@H](NC(=O)[C@H](CCCNC(=N)N)NC(=O)[C@H](CO)NC(=O)[C@@H](N)CO)[C@@H](C)O)C(C)C)[C@@H](C)O)C(=O)O [HPVP5V] (H-SSRTVRETQL-OH)
0.85

Same thing, different compound: CC(C)C[C@H](NC(=O)[C@H](CCC(N)=O)NC(=O)[C@@H](NC(=O)[C@H](CCC(=O)O)NC(=O)[C@H](CCC(N)=O)NC(=O)[C@H](CCCNC(=N)N)NC(=O)[C@@H](NC(=O)[C@H](CCCNC(=N)N)NC(=O)[C@H](CO)NC(=O)[C@@H](N)CO)[C@@H](C)O)[C@@H](C)O)C(=O)O [HPVP4Q] (H-SSRTRQETQL-OH)
0.72

Same thing, different compound: `CC(C)C[C@H](NC(=O)[C@H](CCC(N)=O)NC(=O)[C@@H](NC(=O)[C@H](CCC(=O)O)NC(=O)[C@H](CCCNC(=N)N)NC(=O)[C@H](CCCNC(=N)N)NC(=O)[C@@H](NC(=O)[C@H](CCCNC(=N)N)NC(=O)[C@H](CO)NC(=O)[C@@H](N)CO)[C@@H](C)O)[C@@H](C)O)C(=O)O`
1.23

====

Assay read-out IC50; system under study: MAGI1 PDZ2 (MAGI1–2) (Homo sapiens, UniProt Q96QZ7).
Residues, ends and D or L forms follow the SMILES beside them.
Report as a plain number; the unit µM is understood.

Known IC50 results, listed for orientation:
MOLECULE	IC50, µM
CC(C)C[C@H](NC(=O)[C@H](CCC(N)=O)NC(=O)[C@@H](NC(=O)[C@H](CCC(=O)O)NC(=O)[C@H](CCC(N)=O)NC(=O)[C@H](CCCNC(=N)N)NC(=O)[C@@H](NC(=O)[C@H](CCCNC(=N)N)NC(=O)[C@H](CO)NC(=O)[C@@H](N)CO)[C@@H](C)O)[C@@H](C)O)C(=O)O [HPVP4Q] (H-SSRTRQETQL-OH)	3.8
CC(C)C[C@H](NC(=O)[C@H](CCCNC(=N)N)NC(=O)[C@@H](NC(=O)[C@H](CCC(=O)O)NC(=O)[C@H](CCCNC(=N)N)NC(=O)[C@H](CCCNC(=N)N)NC(=O)[C@@H](NC(=O)[C@H](CCCNC(=N)N)NC(=O)[C@H](CO)NC(=O)[C@@H](N)CO)[C@@H](C)O)[C@@H](C)O)C(=O)O [HPVP1R] (H-SSRTRRETRL-OH)	5.2
CC(C)C[C@H](NC(=O)[C@H](CCCNC(=N)N)NC(=O)[C@@H](NC(=O)[C@H](CC(=O)O)NC(=O)[C@H](CCCNC(=N)N)NC(=O)[C@@H](NC(=O)[C@@H](NC(=O)[C@H](CCCNC(=N)N)NC(=O)[C@H](CO)NC(=O)[C@@H](N)CO)[C@@H](C)O)C(C)C)[C@@H](C)O)C(=O)O [CFTRP4R] (H-SSRTVRDTRL-OH)	460

Which IC50 value belongs to CC(C)C[C@H](NC(=O)[C@H](CCC(N)=O)NC(=O)[C@@H](NC(=O)[C@H](CC(=O)O)NC(=O)[C@H](CCC(N)=O)NC(=O)[C@@H](NC(=O)[C@@H](NC(=O)[C@H](CCCNC(=N)N)NC(=O)[C@H](CO)NC(=O)[C@@H](N)CO)[C@@H](C)O)C(C)C)[C@@H](C)O)C(=O)O [CFTRP1Q] (H-SSRTVQDTQL-OH) ?
420
